Test target: Her2 exon 20 YVMA insertion (A775_G776ins YVMA) (Homo sapiens (Human), UniProt P04626, INS775YVMA)
Sequence (P04626 other isoform, or with tags, fused parts or gaps ins YVMA behind 775): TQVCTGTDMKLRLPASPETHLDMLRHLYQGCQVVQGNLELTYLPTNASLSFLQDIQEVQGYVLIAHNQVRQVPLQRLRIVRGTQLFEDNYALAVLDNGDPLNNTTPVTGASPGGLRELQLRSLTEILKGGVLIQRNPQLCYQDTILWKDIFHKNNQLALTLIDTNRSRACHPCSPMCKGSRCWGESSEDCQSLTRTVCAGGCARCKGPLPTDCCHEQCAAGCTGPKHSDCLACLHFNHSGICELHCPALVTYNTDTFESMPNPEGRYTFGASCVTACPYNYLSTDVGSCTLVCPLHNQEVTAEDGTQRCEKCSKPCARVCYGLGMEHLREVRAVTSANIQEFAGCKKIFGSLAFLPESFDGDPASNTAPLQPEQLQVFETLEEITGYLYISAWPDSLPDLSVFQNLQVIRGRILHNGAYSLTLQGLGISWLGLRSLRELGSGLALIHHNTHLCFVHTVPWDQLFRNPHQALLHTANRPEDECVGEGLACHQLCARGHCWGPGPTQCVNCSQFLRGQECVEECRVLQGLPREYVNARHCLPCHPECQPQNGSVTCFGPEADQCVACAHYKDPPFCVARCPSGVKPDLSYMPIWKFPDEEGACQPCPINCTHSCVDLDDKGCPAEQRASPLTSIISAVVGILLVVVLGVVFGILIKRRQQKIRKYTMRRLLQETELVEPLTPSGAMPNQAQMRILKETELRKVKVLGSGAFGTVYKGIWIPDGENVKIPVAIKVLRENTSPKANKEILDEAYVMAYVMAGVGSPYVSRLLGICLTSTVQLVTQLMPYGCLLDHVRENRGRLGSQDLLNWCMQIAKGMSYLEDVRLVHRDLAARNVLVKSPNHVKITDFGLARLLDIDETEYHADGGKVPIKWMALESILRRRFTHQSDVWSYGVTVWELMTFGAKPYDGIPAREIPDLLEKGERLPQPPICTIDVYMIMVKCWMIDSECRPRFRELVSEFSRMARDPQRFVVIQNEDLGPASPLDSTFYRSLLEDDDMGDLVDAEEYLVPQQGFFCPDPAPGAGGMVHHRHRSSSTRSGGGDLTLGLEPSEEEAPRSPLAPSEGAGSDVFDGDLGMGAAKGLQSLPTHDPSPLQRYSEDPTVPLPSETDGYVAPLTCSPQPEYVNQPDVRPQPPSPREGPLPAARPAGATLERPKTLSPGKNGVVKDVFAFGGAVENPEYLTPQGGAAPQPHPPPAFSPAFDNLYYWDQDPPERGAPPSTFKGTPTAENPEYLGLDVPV
Procedure details: Ba/F3-Her2 Exon20 YVMA cell anti-proliferative assay (CellTiter 96 MTS, 72 h)
Experimental context: Ba/F3-Her2 Exon20 YVMA cells
Quantity: IC50

# Compound, Recorded measurement
records = [
    ("C=CC(=O)Nc1cc(Nc2ncc(C(=O)OC(C)C)c(-c3cn(C)c4ncccc34)n2)c(OC)cc1N(C)CCNC [Example 74]", "100 to 500 nM"),
    ("C=CC(=O)Nc1cc(Nc2ncc(C(=O)OC)c(-c3cn(C)c4ccccc34)n2)c(OC)cc1C#CCN(C)C [Example 68]", "500 to 1000 nM"),
    ("C=CC(=O)Nc1cc(Nc2ncc(Cl)c(-c3cnn4ccccc34)n2)c(OC)cc1N(C)CCN1CCOCC1 [Example 54]", "> 1000 nM"),
    ("C=CC(=O)Nc1cc(Nc2ncc(NC(=O)C(C)C)c(-c3cn(C)c4ccccc34)n2)c(OC)cc1N(C)CCN(C)C [Example 39]", "> 1000 nM"),
    ("C=CC(=O)Nc1cc(Nc2ncc(C(=O)OC(C)C)c(-n3cc(C)c4ccccc43)n2)c(OC)cc1N(C)CCN(C)C [Example 97]", "100 to 500 nM"),
    ("C=CC(=O)Nc1cc(Nc2ncc(C(=O)OCC(C)C)c(-c3cn(C)c4ccccc34)n2)c(OC)cc1N(C)CCN(C)C [Example 28]", "100 to 500 nM"),
    ("C=CC(=O)Nc1cc(Nc2nccc(-c3cn(CC(N)=O)c4ccccc34)n2)c(OC)cc1N(C)CCN(C)C [Example 70]", "100 to 500 nM"),
    ("C=CC(=O)Nc1ccc(OC)c(Nc2ncc(C#N)c(-c3cn(C)c4cc(OCC5CCCN5C)ccc34)n2)c1 (centres unmarked) [Example 21]", "500 to 1000 nM"),
    ("C=CC(=O)Nc1cc(Nc2ncc(C(=O)OC3CCC3)c(-c3cn(C)c4ccccc34)n2)c(OC)cc1N(C)CCN(C)C [Example 14]", "< 100 nM"),
    ("C=CC(=O)Nc1cc(Nc2nccc(-c3cn(C)c4ccc(C(=O)OC)cc34)n2)c(OC)cc1N(C)CCN(C)C [Example 81]", "500 to 1000 nM"),
    ("C=CC(=O)Nc1cc(Nc2ncc(C(=O)OC(C)C)c(-c3cn(C)c4ccccc34)n2)c(OC)cc1N(C)CC1CCCN1C (centres unmarked) [Example 17]", "< 100 nM"),
    ("C=CC(=O)Nc1cc(Nc2ncc(NC(=O)NC)c(-c3cn(C)c4ccccc34)n2)c(OC)cc1N(C)CCN(C)C [Example 99]", "> 1000 nM"),
    ("C=CC(=O)Nc1cc(Nc2nccc(-c3c(-c4ccc(OCc5ccccn5)c(Cl)c4)n(C)c4ccccc34)n2)c(OC)cc1N(C)CCN(C)C [Example 5]", "100 to 500 nM"),
    ("C=CC(=O)Nc1cc(Nc2ncc(C(=O)OC(C)C)c(-c3cn(C)c4ncccc34)n2)c(OC)cc1N(C)CCN(C)C [Example 34]", "< 100 nM"),
]

Source listed as patent US10227342B2.
